Conditions: bacteroides thetaiotaomicron, 12 h, 2 µM
Description: The drug is tested on Bacteroides thetaiotaomicron strain: 3731 for biotransformation. The drug concentrations were measured before and after a 12-h incubation by liquid-chromatography-coupled mass spectrometry (LC–MS)
ATTRIBUTE MEASURED: Bacterial Biotransformation

# COMPOUND, OBSERVED VALUE
records = [
    ("COc1cc2c(c(OC)c1OC)-c1ccc(OC)c(=O)cc1[C@@H](NC(C)=O)CC2 [COLCHICINE]", "Compound metabolized"),
    ("COc1cc(C(=O)NCc2ccc(OCCN(C)C)cc2)cc(OC)c1OC [TRIMETHOBENZAMIDE]", "Compound NOT metabolized"),
    ("CC(C)c1nc(N(C)S(C)(=O)=O)nc(-c2ccc(F)cc2)c1/C=C/[C@@H](O)C[C@@H](O)CC(=O)[O-].CC(C)c1nc(N(C)S(C)(=O)=O)nc(-c2ccc(F)cc2)c1/C=C/[C@@H](O)C[C@@H](O)CC(=O)[O-].[Ca+2] [ROSUVASTATIN CALCIUM]", "Compound NOT metabolized"),
    ("CC(C)(C)NCC(O)c1cc(Cl)c(N)c(Cl)c1 (stereo unspecified) [CLENBUTEROL]", "Compound NOT metabolized"),
    ("CNCC[C@H](Oc1cccc2ccccc12)c1cccs1 [DULOXETINE]", "Compound NOT metabolized"),
    ("NC(=O)N1c2ccccc2CC(=O)c2ccccc21 [OXCARBAZEPINE]", "Compound NOT metabolized"),
    ("CC#CCn1c(N2CCC[C@@H](N)C2)nc2c1c(=O)n(Cc1nc(C)c3ccccc3n1)c(=O)n2C [LINAGLIPTIN]", "Compound metabolized"),
    ("Cc1ccccc1C(OCCN(C)C)c1ccccc1.O=C(O)CC(O)(CC(=O)O)C(=O)O (stereo unspecified) [ORPHENADRINE CITRATE]", "Compound NOT metabolized"),
    ("O=C(NCc1ccccc1)OCCO [BURAMATE]", "Compound NOT metabolized"),
    ("Cc1nc(-c2ccc(OCC(C)C)c(C#N)c2)sc1C(=O)O [FEBUXOSTAT]", "Compound NOT metabolized"),
    ("Cc1ccc(/C(=C\\CN2CCCC2)c2ccccn2)cc1 [TRIPROLIDINE]", "Compound NOT metabolized"),
]
